B1: SLC6A17 (parent)
chain: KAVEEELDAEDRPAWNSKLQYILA

# Variants of: B1
# testProtocol: protein stability index of a GFP-peptide fusion (GPS, HEK-293T) (PSI 1-6); higher = more stable;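 further: lentivirally expressed fusions sorted by FACS into six bins by GFP to DsRed ratio, PSI derived from sequencing read proportions per bin multiplied by bin number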
# recordedConditions: c terminus: a fixed tail appended
Short version: protein stability index at least 3 is satisfied, less is not satisfied.

Examples with answers:
E5T: not satisfied
E10D: not satisfied

Field: next variant
Inquiry: In plain terms: is recorded protein stability index at least 3 for `E5L` ?
Reply text: not satisfied
